target_system: Hexokinase-4 (Homo sapiens) (UniProt P35557)
method_description: Activation of human recombinant glucokinase expressed in Escherichia coli coexpressing G6PDH at 10 uM using 20 mM glucose measured as ratio of enzyme activation in treated to untreated control by G6PDH coupled continuous spectrophotometric assay
Binary call on Ratio: satisfied from 1 upward, not satisfied beneath that.

The examples below pair each entry with its known result.
structure_string | target_system | assigned_label
Cc1oc(-c2ccccc2O)cc1C(=O)Nc1nc2c(s1)CCC2 | Hexokinase-4 (Homo sapiens) (UniProt P35557) | not satisfied
Cc1noc(C)c1C(=O)Nc1nc2c(s1)CCCC2 | Hexokinase-4 (Homo sapiens) (UniProt P35557) | not satisfied
Cc1cc(C(=O)Nc2ccc(C(=O)O)cn2)c(C)o1 | Hexokinase-4 (Homo sapiens) (UniProt P35557) | satisfied
CCc1oc(-c2ccccc2C(N)=O)cc1C(=O)Nc1nc2c(s1)CCC2 | Hexokinase-4 (Homo sapiens) (UniProt P35557) | satisfied
CC(=O)c1ccccc1-c1cc(C(=O)Nc2nc3c(s2)CCC3)cs1 | Hexokinase-4 (Homo sapiens) (UniProt P35557) | satisfied
CC(=O)NCc1cc(C(=O)Nc2nc3c(s2)CCC3)c(C)o1 | Hexokinase-4 (Homo sapiens) (UniProt P35557) | satisfied

Query: Reported Ratio reaches at least 1 for `COC(=O)CCc1cc(C(=O)Nc2nc3c(s2)CCC3)c(C)o1` ?
Reply: satisfied

Query: Reported Ratio reaches at least 1 for `Cc1oc(-c2ccccc2C(=O)N(C)C)cc1C(=O)Nc1nc2c(s1)CCC2` ?
Reply: not satisfied

Query: Reported Ratio reaches at least 1 for `CNC(=O)CCc1cc(C(=O)Nc2nc3c(s2)CCC3)c(C)o1` ?
Reply: satisfied

Query: Reported Ratio reaches at least 1 for `Cc1cc(C(=O)Nc2nc3c(s2)CCCCC3)c(C)o1` ?
Reply: satisfied

Query: Reported Ratio reaches at least 1 for `Cc1cc(C(=O)Nc2nc3c(o2)CCCC3)c(C)o1` ?
Reply: not satisfied

###

target_system: Hexokinase-4 (Homo sapiens)
Sequence (whole entry): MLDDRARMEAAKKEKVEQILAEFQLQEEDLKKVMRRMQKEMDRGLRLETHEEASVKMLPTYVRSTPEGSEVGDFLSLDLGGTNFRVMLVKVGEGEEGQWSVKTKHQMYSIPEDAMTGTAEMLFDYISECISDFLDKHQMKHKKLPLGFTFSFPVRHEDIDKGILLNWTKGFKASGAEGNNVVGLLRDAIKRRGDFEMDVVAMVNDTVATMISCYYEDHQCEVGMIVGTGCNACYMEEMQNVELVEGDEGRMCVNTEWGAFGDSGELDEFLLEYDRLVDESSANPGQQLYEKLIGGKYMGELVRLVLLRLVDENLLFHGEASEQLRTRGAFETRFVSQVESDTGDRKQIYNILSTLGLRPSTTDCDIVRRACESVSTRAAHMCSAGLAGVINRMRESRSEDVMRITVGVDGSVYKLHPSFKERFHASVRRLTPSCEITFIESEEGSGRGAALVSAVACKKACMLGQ
method_description: Activation of human recombinant glucokinase expressed in Escherichia coli coexpressing G6PDH at 10 uM using 5 mM glucose measured as ratio of enzyme activation in treated to untreated control by G6PDH coupled continuous spectrophotometric assay
parameter: Ratio
Give only the figure.

compound | Ratio
Cc1cc(C(=O)Nc2nc3c(s2)CCCC3)c(C)o1 | 1.99
CCc1sc(-c2ccccc2C(N)=O)cc1C(=O)Nc1nc2c(s1)CCC2 | 3.7

Query: For Hexokinase-4 (Homo sapiens), provide Ratio of `CC(=O)c1ccccc1-c1cc(C(=O)Nc2nc3c(s2)CCC3)c(C)o1` please.
Reply: 2.43

Query: For Hexokinase-4 (Homo sapiens), provide Ratio of `CCc1oc(-c2ccccc2C(C)=O)cc1C(=O)Nc1nc2c(s1)CCCC2` please.
Reply: 1.89

Query: For Hexokinase-4 (Homo sapiens), provide Ratio of `CC(=O)c1cc(C(=O)Nc2nc3c(s2)CCC3)c(C)o1` please.
Reply: 1.06

Query: For Hexokinase-4 (Homo sapiens), provide Ratio of `CC(=O)Oc1cccc(-c2cc(C(=O)Nc3nc4c(s3)CCC4)c(C)o2)c1` please.
Reply: 0.94

Query: For Hexokinase-4 (Homo sapiens), provide Ratio of `CC(=O)CCc1cc(C(=O)Nc2nc3c(s2)CCC3)c(C)o1` please.
Reply: 2.07

Query: For Hexokinase-4 (Homo sapiens), provide Ratio of `CC(=O)NCc1cc(C(=O)Nc2nc3c(s2)CCC3)c(C)o1` please.
Reply: 1.4

Query: For Hexokinase-4 (Homo sapiens), provide Ratio of `CNC(=O)CCc1cc(C(=O)Nc2nc3c(s2)CCC3)c(C)o1` please.
Reply: 1.12

Query: For Hexokinase-4 (Homo sapiens), provide Ratio of Cc1cc(C(=O)Nc2nc3c(s2)C2CCC3C2)c(C)o1 (centres undefined) please.
Reply: 1.25

Query: For Hexokinase-4 (Homo sapiens), provide Ratio of `Cc1cc(C(=O)Nc2nc3c(s2)CCCC3)c(C)s1` please.
Reply: 2.12

Query: For Hexokinase-4 (Homo sapiens), provide Ratio of `Cc1oc(-c2ccccc2C(=O)N(C)C)cc1C(=O)Nc1nc2c(s1)CCC2` please.
Reply: 0.96

Query: For Hexokinase-4 (Homo sapiens), provide Ratio of `CCc1oc(-c2ccccc2S(C)(=O)=O)cc1C(=O)Nc1nc2c(s1)CCC2` please.
Reply: 2.92

###

target_system: Hexokinase-4 (Homo sapiens)
method_description: Activation of human recombinant glucokinase expressed in Escherichia coli coexpressing G6PDH at 10 uM using 5 mM glucose measured as ratio of enzyme activation in compound treated to Ro-28-1675 by G6PDH coupled continuous spectrophotometric assay
Binary call on Ratio: Yes from 0.3 upward, No beneath that.

The examples below pair each entry with its known result.
structure_string | assigned_label
CC(=O)c1ccccc1-c1cc(C(=O)Nc2nc3c(s2)CCC3)cs1 | No
CC(=O)c1ccccc1-c1cc(C(=O)Nc2nc3c(s2)CCC3)c(C)s1 | Yes
Cc1oc(-c2ccccc2S(C)(=O)=O)cc1C(=O)Nc1nc2c(s1)CCC2 | Yes

Kindly review the next molecule as well.
Query: Reported Ratio reaches at least 0.3 for `Cc1cc(C(=O)Nc2nc3c(o2)CCCC3)c(C)o1` ?
Reply: No

###

target_system: Hexokinase-4 (Homo sapiens)
method_description: Activation of human recombinant glucokinase expressed in Escherichia coli coexpressing G6PDH at 10 uM using 5 mM glucose measured as ratio of enzyme activation in treated to untreated control by G6PDH coupled continuous spectrophotometric assay
parameter: Ratio
Give only the figure.

structure_string | Ratio
COC(=O)c1ccccc1-c1cc(C(=O)Nc2nc3c(s2)CCC3)c(C)o1 | 1.36
CC(=O)Oc1ccccc1-c1cc(C(=O)Nc2nc3c(s2)CCC3)c(C)o1 | 0.95
Cc1oc(-c2ccccc2O)cc1C(=O)Nc1nc2c(s1)CCC2 | 0.95

Query: So what does the record say about Ratio for `Cc1oc(-c2cccc(O)c2)cc1C(=O)Nc1nc2c(s1)CCC2` ?
Reply: 0.94

Query: So what does the record say about Ratio for `Cc1csc(NC(=O)c2cc(C)oc2C)n1` ?
Reply: 1.24

Query: So what does the record say about Ratio for `CC(=O)c1ccccc1-c1cc(C(=O)Nc2nc3c(s2)CCC3)cs1` ?
Reply: 2.02

Query: So what does the record say about Ratio for `CC(=O)OCc1cc(C(=O)Nc2nc3c(s2)CCC3)c(C)o1` ?
Reply: 2.35

###

target_system: Hexokinase-4 (Homo sapiens) (UniProt P35557)
Sequence (whole entry): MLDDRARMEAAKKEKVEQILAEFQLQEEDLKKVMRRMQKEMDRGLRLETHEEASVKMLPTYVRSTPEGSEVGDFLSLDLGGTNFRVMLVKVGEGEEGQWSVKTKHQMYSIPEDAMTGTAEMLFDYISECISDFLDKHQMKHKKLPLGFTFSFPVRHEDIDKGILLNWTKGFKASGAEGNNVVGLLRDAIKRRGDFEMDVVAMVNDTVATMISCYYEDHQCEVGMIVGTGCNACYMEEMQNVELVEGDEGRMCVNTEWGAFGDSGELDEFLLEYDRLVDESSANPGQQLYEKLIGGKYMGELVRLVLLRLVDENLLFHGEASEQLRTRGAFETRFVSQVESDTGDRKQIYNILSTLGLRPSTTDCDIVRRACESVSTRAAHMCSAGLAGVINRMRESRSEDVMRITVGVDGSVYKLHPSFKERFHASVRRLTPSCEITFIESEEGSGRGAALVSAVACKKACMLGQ
method_description: Activation of human recombinant glucokinase expressed in Escherichia coli coexpressing G6PDH at 10 uM using 20 mM glucose measured as ratio of enzyme activation in compound treated to Ro-28-1675 by G6PDH coupled continuous spectrophotometric assay
Documented Ratio across a set of compounds
Give only the figure.

Known results for compounds:
compound | Ratio
CCc1sc(-c2ccccc2S(C)(=O)=O)cc1C(=O)Nc1nc2c(s1)CCC2 | 0.363
Cc1oc(-c2ccccn2)cc1C(=O)Nc1nc2c(s1)CCC2 | 0.057
Cc1cc(C(=O)Nc2nc3c(s2)CCC3)c(C)s1 | 0.231
Cc1cc(C(=O)Nc2ccc(C(=O)O)cn2)c(C)o1 | 0.027

Query: So what does the record say about Ratio for O=C(Nc1nc2c(s1)CCCC2)C1CCOC1 (stereo not drawn) ?
Reply: -0.041

Query: So what does the record say about Ratio for O=C(Nc1nc2c(s1)CCCC2)C1CCCO1 (stereo not drawn) ?
Reply: 0.014

Query: So what does the record say about Ratio for `CCc1sc(-c2ccccc2S(C)(=O)=O)cc1C(=O)Nc1nc2c(s1)CCCC2` ?
Reply: -0.041

Query: So what does the record say about Ratio for `Cc1oc(-c2cccc(O)c2)cc1C(=O)Nc1nc2c(s1)CCC2` ?
Reply: -0.069

Query: So what does the record say about Ratio for `Cc1cc(C(=O)Nc2nc3c(s2)CCCC3)c(C)o1` ?
Reply: 0.072

Query: So what does the record say about Ratio for `Cc1oc(-c2ccccc2[N+](=O)[O-])cc1C(=O)Nc1nc2c(s1)CCC2` ?
Reply: 0.267

Query: So what does the record say about Ratio for `Cc1noc(C)c1C(=O)Nc1nc2c(s1)CCCC2` ?
Reply: -0.025

Query: So what does the record say about Ratio for `CCc1oc(-c2ccccc2C(C)=O)cc1C(=O)Nc1nc2c(s1)CCC2` ?
Reply: 0.361

Query: So what does the record say about Ratio for `CCc1sc(-c2ccccc2C(C)=O)cc1C(=O)Nc1nc2c(s1)CCC2` ?
Reply: 0.446

FYI, the data here is from ChEMBL document CHEMBL1821720.
